system tested: T1, cynomolgus PVRIG on cells (cynomolgus, UniProt A0A2K5WVV8 41-322)
T1 construct: whole, on cells; also called cPVRIG; expi cPVRIG cells
T1 sequence: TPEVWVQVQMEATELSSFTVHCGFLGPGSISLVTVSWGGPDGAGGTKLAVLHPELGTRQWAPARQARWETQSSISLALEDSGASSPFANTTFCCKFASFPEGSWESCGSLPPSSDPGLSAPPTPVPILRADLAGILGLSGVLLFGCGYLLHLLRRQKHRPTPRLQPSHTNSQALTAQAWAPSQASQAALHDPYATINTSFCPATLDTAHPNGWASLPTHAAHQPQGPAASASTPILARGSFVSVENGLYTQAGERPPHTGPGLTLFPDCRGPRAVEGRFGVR
test name: FACS, expi cPVRIG over expi parental cells, 3.3ug/ml
Measured gMFIr Expi cyno OE/par of individual entries
When you answer, write just the number.

Solved cases (3 shown):
>>> observed_measurement("CHA.7.502 (antibody, V domains shown) VH: DVQLVESGGDLVQPGGSRKLSCTASGFTFSNFGMHWVRQAPEKGLEWVAYISSGSSTIYYADTVKGRFTISRDNPENTLFLQMTSLRSEDTAMYYCTRLDYYTNSYSMDHWGQGTSVTVSS VL: QIVLTQSPALMSASPGEKVTLTCSASSSLPYIYWYQQKPGSSPKPWIYLTSNLASGVPARFSGSRSGTSYSLTISSVEAEDAATYYCQQWSSNPFTFGSGTKLEIK")
60.5
>>> observed_measurement("CHA.7.544 (antibody, V domains shown) VH: QVQLKESGPGLVAPSQSLSITCTVSGFSLTSYAITWVRQPPGKGLEWLGVIWPGGGTNYNSALKSRLSISKDNSKSHLFLKMNSLQTDDTARYYCVRSYDGYLDWYFDVWGTGTTVTVSS VL: NIVMTQSPKSMSMSVGERVTLSCKASENVGTYVSWYQQKPDQSPKLLIYGASNRYTGVPDRFTGSGSATDFTLIISSVQAEDLSDYHCGQSYSYPYTFGGGTKLEII")
61.1
>>> observed_measurement("CHA.7.530 (antibody, V domains shown) VH: QVQLQQSGAELMRPGTSVKVSCKASGYAFTNHLIEWIKQRPGQGLEWIGVINPGSDSTDYNEKFKDKATLTADKSSSTAYMQLSSLTSDDSAVYFCARSLYYNSWFVYWGQGTLVTVSA VL: DIQMTQSPASLSASVGETVTITCRASENIYSYLAWYQQKRGKSPQLLVYNAKTLVEGVPSRFSGSGSGTQFSLKINSLQPEDFGSYYCQHHYGTPYTFGGGTKLEIK")
60.8

// below: gMFIr Expi cyno OE/par requested for another binder
[ask] // query gMFIr Expi cyno OE/par value for entry CHA.7.516 (antibody, V domains shown) VH: QVQLQQSGPELVRPGVSVKISCKVSGYTFTDYVMHWVKQSHAKSLEWIGIISPYSGNTNYNQNFKGKATMTVDKSSSTAYMALARLTSEDSAIYYCAREGDLPMFAYWGQGTLVTVSA VL: QIVLTQSPTIMSASPGEKVTMTCSASSSVSYIYWYQQNPGSSPRLLIYDTSILASGVPFRFSGSGSGTSYSLTISRMEAEDAATYYCQQWTSYPLTFGSGTKLELK
[reply] 60
